Parameter: residual activity. Scope: all listed entries.
Biological target: EPHB1 (human)
Test: radiometric filter-binding kinase assay
Conditions: compound 1.0 µM
Please answer using a numeric value trailed by its unit.

>  <compound>
NC(=O)c1ccc(-c2ccc(Oc3cncc4sc(-c5nn[nH]n5)cc34)cc2)cc1

>  <residual activity>
95%

$$$$
>  <compound>
O=C(Nc1nc2cc(C(F)(F)F)cc(NC3CC3)n2n1)c1cccnc1

>  <residual activity>
94%

$$$$
>  <compound>
Oc1ccc2ccccc2c1SSc1c(O)ccc2ccccc12

>  <residual activity>
118%

$$$$
>  <compound>
CC(C)(C#N)c1ccc(N2C(=O)OCc3cnc4ccc(-c5cnc6ccccc6c5)cc4c32)cc1

>  <residual activity>
93%

$$$$
>  <compound>
N#Cc1c(C2CCNCC2)cc(-c2c(O)cccc2OCC2CC2)nc1N

>  <residual activity>
96%

$$$$

Which residual activity is reported for this compound? COc1cc(O)c2c(c1)/C=C/C[C@H](O)[C@H](O)C(=O)/C=C\C[C@H](C)OC2=O
81%

Which residual activity is reported for this compound? CNC(=O)C1[C@H]2O[C@@](C)([C@@H]1N)n1c3ccccc3c3c4c(c5c6ccccc6n2c5c31)C(=O)NC4 (stereo not given in full)
25%

Which residual activity is reported for this compound? Cc1nc(-c2ccc(OCC(C)C)c(C#N)c2)sc1C(=O)O
118%

Which residual activity is reported for this compound? COc1ccc(-n2ncc3cnc(Nc4cc(OC)c(OC)c(OCCCN5CCN(C)CC5)c4)nc32)cc1
3%

Which residual activity is reported for this compound? NC(=O)c1c(NC(=O)C2CC2)sc2c1CCCC2
117%

Attribution: the kinase profiling compilation of Christmann-Franck et al. (2016)
